- Assayed System: human chemokine receptor 2 isoform B (Homo sapiens)
- Sequence (P41597 1-360 isoform P41597-2): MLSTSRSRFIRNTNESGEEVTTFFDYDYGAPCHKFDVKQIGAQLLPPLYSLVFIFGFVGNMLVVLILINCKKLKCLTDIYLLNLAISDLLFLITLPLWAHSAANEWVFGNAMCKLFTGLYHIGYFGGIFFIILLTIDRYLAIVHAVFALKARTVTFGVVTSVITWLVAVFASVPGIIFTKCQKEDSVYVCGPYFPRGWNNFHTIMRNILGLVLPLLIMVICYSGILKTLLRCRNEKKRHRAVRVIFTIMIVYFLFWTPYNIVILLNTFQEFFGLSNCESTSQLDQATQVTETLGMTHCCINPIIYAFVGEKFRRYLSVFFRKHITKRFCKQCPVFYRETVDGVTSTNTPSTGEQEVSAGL
- Test Description: Calcium mobilization assay (FLIPR, antagonist activity against MCP-1)
- Conditions: Ca mobilisation assay, CHOK1-CCR2B-A5 cells, inhibition of calcium increase induced by 20 nM MCP-1
pIC50: −log10 of the molar value.
Please enter 1 (yes) where pIC50 is greater than or equal to 6, and 0 (no) where it is lower.

Observe how each entry below is paired with its result.
Compound | Group Label
CC1(CO)CCN(C(=O)CN2CCN(C(=O)/C=C/c3ccc(Cl)c(Cl)c3)CCC2=O)CC1 | 0 (no)
O=C(/C=C/c1ccc(Cl)c(Cl)c1)N1CCC(=O)N(C(CO)CC(=O)N2CCCCC2)CC1 (racemic) | 0 (no)
O=C(/C=C/c1ccc(Cl)c(Cl)c1)N1CCC(=O)N(CC(=O)N2CCCCC2)CC1 | 1 (yes)
C[C@H]1C(=O)N(CCCC(=O)N2CCC3(CC3)[C@H](O)C2)CCN1c1ccc(C(F)(F)F)c(C(F)(F)F)c1 | 1 (yes)
C[C@H]1C(=O)N(CCC(=O)N2CCC(C(F)(F)F)CC2)CCN1C(=O)Nc1ccc(Cl)c(Cl)c1 | 0 (no)

Please tell me: is the compound COC(=O)C(CC(=O)N1C[C@@H](C)C[C@H](O)C1)N1CCN(C(=O)/C=C/c2ccc(Cl)c(Cl)c2)CCC1=O (stereo partly drawn) at or over 6 in terms of pIC50?
0 (no)

Please tell me: is the compound C[C@H]1C(=O)N(CCCC(=O)N2CCC3(CC3)[C@H](O)C2)CCN1C(=O)Nc1ccc(Cl)cc1 at or over 6 in terms of pIC50?
1 (yes)

Please tell me: is the compound O=C(/C=C/c1ccc(Cl)c(Cl)c1)N1CCC(=O)N(CC(=O)N2CCC3(CCCC3)CC2)CC1 at or over 6 in terms of pIC50?
0 (no)

Please tell me: is the compound C[C@H]1C(=O)N(CCCC(=O)N2CCC(C(F)(F)F)CC2)CCN1C(=O)Nc1cccc(Cl)c1 at or over 6 in terms of pIC50?
0 (no)

Please tell me: is the compound C[C@H]1C(=O)N(CCCC(=O)N2CCC3(CC3)[C@H](O)C2)CCN1C(=O)Nc1ccc(OC(F)(F)F)cc1 at or over 6 in terms of pIC50?
1 (yes)

Please tell me: is the compound O=C(/C=C/c1ccc(Cl)c(Cl)c1)N1CCC(=O)N(CCC(=O)N2CCCCC2)CC1 at or over 6 in terms of pIC50?
0 (no)
